# Measurement Protocol: chemical genetic growth profiling, strain panel (AID 1159580);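 further: tested at 20 µM; growth read once vehicle control cultures reached saturation at 30 °C; 1 = growth at the plate median or of vehicle wells; lower values mean less growth of the strain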
# Experimental Setup: S. cerevisiae deletion strains, growth OD, locus YBR009C, strain hhf1, stronger effect = lower value
In all, about 5,500 compounds went through this assay and about 2,000 (36%) were called active. About 18% were inconclusive and are not listed. This is one part of the list.
Measure Name: normalized growth
Just the number, please, no unit after it.

# lookup: normalized growth of O=C(CCBr)N1CCN(C(=O)CCBr)CC1
1.02

How about this compound: CO[C@@]1(NC(=O)Cc2cccs2)C(=O)N2C(C(=O)O)=C(COC(N)=O)CS[C@@H]21
1.02

Follow-up entry: COc1cc2c(cc1O)CCNC2C (stereo unspecified)
1

Field entry: COC1(C)CCC2OC2(C)CCC2C1CC2(C)C (stereo unspecified)
0.991

Next record, please: Cc1cc(=O)n(-c2ccccc2)n1C
1.06

Another compound: COc1ccc2c(c1)[C@]13CCCC[C@H]1[C@H](C2)N(C)CC3
0.988
